Reference source: the nanobody polyreactivity screen of Harvey et al. (2022)

- testSummary: yeast display, Sf9 membrane polyspecificity reagent, FACS + sequencing; frameworks hold sequencing errors

{"residueString": "QVQLVESGGGLVQAGGSLRLSCAASGITLSWYAMGWYRQAPGKERELVAGISGRGGRTYYADSVKGRFTLSRDNAKNTVYLQMNSLKPEDTAVYYCAADSPGYRSYDYWGQGTQVTVSS", "polyreactivity (PSR sort gate)": "high polyreactivity"}
{"residueString": "QVQLVESGGGLVQAGGSLRISCAASGSIFRYYYMGWYSQAPGKERELVAAITYSGGGTYYADSVKGRFTISRDNAKNTVYLQMNSLKAEDTAVYYCAVRRVGSIYIDRYIYVVSDYFYWGNGTQVTVSS", "polyreactivity (PSR sort gate)": "low polyreactivity"}
{"residueString": "QVQLVESGGGLVQAGGSLRLSCAAYGRIFGGYAMGWYRQAPGKERELVAAISRRGGSTYYADSVKGRFTISRDNAKNTVYLQMNSLKPEDTAVYYCNAVLSVQARLTRVDYDYWGQGTEVTVSS", "polyreactivity (PSR sort gate)": "high polyreactivity"}
{"residueString": "QVQLVESGGGLVQAGGSLRLSCAASGSIFYSNAMGWYRQAPGKERELVAAITSGGRTYYADSVKGRFTISRDNAKNTVYLQMNSLKPEDTAVFYCAARYYLGSWSDYYYWGQGTQVTVSS", "polyreactivity (PSR sort gate)": "high polyreactivity"}
{"residueString": "QVQLVESGGGLVQAGGSLRLSCAASGRIFYRYAMGGYRQAPGKERELVASITTSGDSTYYADSVKGRFTISRDNAKNTVYLQMNSLKPEDTGVYYCAASSYRGRRYDYWGQGTQVTVSS", "polyreactivity (PSR sort gate)": "high polyreactivity"}
{"residueString": "QVQLVESGGGLVQAGGSLRLSCAASGRTFRWNAMGWYRPAPGKERELVAAISSGGSTYYADSVKGRFTISRDNAKNTVYLQMNSLKPEDTAVYYCNKYYVRAYDTQEYDYWGQGTQVTVSS", "polyreactivity (PSR sort gate)": "high polyreactivity"}
{"residueString": "QVQLVESGGGLVQARGSLRLSCAASGLIFKYNVMGWYRQAPGTERELVAAITWGGTRTYYADSVKGRFTISRDNAKNTVYLQMNSLKPEDTAVYYCARSHWTWLLIYIGAQDYDYWGQGTQVTVSS", "polyreactivity (PSR sort gate)": "low polyreactivity"}
{"residueString": "QVQLVESGGGLVQAGGSLRLSSAASGSILGDYGMGWYRQAPGKERELVAAITWNGDSTYYADSVKGRFTISRDNAKNTVYLQMNSLKPEDTAVYYCAADLQDYKYYPWYGYWGQGTQVTVSS", "polyreactivity (PSR sort gate)": "low polyreactivity"}
{"residueString": "QVQLVESGGGLVQAGGSLRLSCAASGIFYFYAMGWYRQAPGKERELVAAITSSGGNTTYADSVKGRFTISRDNAKNTVYLQMNSLKPEDTAVYYCNADYFQDRLDYWGQGTQVTVSS", "polyreactivity (PSR sort gate)": "low polyreactivity"}
{"residueString": "QVQLVESGGGLVQAGGSLRLSCAASGLILRRYAMGWYRQAPGKDRELVAAISWSGGRTYYADSVKGRFTISRDNAKNTVYLQMISLKPEDTAVYYCAAGYIYWYYSYDYWGQGTQGTVSS", "polyreactivity (PSR sort gate)": "high polyreactivity"}
{"residueString": "QVQLVESGGGLVQAGGSLRLSCAASGRIFRSNAMGWYRQAPRKERELVPAITSSDTSTYYADSVKGRFTISRDNAKNTVYLQMKSLKPEDTAVYYCAADFKPTGTNEPKELDYWGQGTQVTVSS", "polyreactivity (PSR sort gate)": "low polyreactivity"}
{"residueString": "QVQLVESGGGLVQAGGSLRLSCAASGSTFSWYAMGWYRQAPGKERELVAAISYSGGTYYADSVKGRFTISRDNEKNTVYLQMNSLKPEYNAVYYCAALRTRYGYDYWGQGTQVTLSS", "polyreactivity (PSR sort gate)": "high polyreactivity"}
{"residueString": "QVQLVESVGGLVQAGGSLRLSCAASGRTFGRYAMGWYRQAPGKERELVAGISRSGDSTHYADSVKGRFTISRDNAKNTVYLQMNSLKPEDTAVYYCNKETPTIGARKYEYWGQGTQVTVSS", "polyreactivity (PSR sort gate)": "low polyreactivity"}
{"residueString": "QVQLEESGGGLVQAGGSLRLSCAASGSIFYSNAMGWYRQAPGKERELVATIRSGGTTYYADSVKGRFTISRDNAKNTVYLQMNSLKPEDTAVYYCAKRYGVKYWGQGTQVTVES", "polyreactivity (PSR sort gate)": "high polyreactivity"}
{"residueString": "QVQLVESGVGLVQAGGSLRLTCAASGSIFTAYPMGSYRQAPGKERELVAAISRSGGRTYYADSVKGRFTISRDNAQITVNFQFNSLKPEDTAVYNCAAASRSTNYNYYYWGLGTQVTVSS", "polyreactivity (PSR sort gate)": "high polyreactivity"}
{"residueString": "QFQLVESGGGLVQAGGSLRLSCAASGFTFYYYAMGWYRQAPGKERELVAAISSSGSSTYYADSVKGRFTISRVNAKNTVYLQMNSLKREDTAVYYWNARRYEYLWGDYWGQGTQVTVSS", "polyreactivity (PSR sort gate)": "high polyreactivity"}
{"residueString": "QVQLVESGGGLVQAGGSLRLSCAASGLIFGYNAMGWYRQAPGKERELVAAISRRGTSTYYADSVKGRFTISRDNAKNTVYLQMNSLKPEDTAVYYCATYGVNPPGVEEYNYWGQGTQVTVSS", "polyreactivity (PSR sort gate)": "high polyreactivity"}
{"residueString": "QVQIVESGGGLVQAGGSLSLSCASSGSTIGDYAMGWYRQAPGKERELVAAINSGDSKNYADSVKGRFTISRDNAKNTVYLQMNSLKPEDTAVYYCAAEPLSISYVYYKYKYEYWGQGTQVTVSS", "polyreactivity (PSR sort gate)": "low polyreactivity"}
{"residueString": "QVQLVESGGGLVQAGGSLRLSCAASGRIFRYYAMGWYRQAPGKERELVAAISWSGGRTYYADSVKGRFTISRDNAKNSVYLQMNSLIPEDTAVFYCYAGYLYPGYFVREYDYWGQGTQVTVSS", "polyreactivity (PSR sort gate)": "high polyreactivity"}
{"residueString": "QVQLVESGGGLVQAGGSLRFSCAASGSIFHYYAMGWYRQAPGKERELVAAISGGSRTKYADSVKGRFTISRDNAKNTVYLQMNSLKPEDTAVYYCAKRYYYPYRYYYWGQGTQVTVSS", "polyreactivity (PSR sort gate)": "high polyreactivity"}
{"residueString": "QVQIVESGGGLVQAGGSLRLSCAASGRIFYKNAMGWYRQAPGKERELVAAISNVGSTYYADSVKGRFTISRDNAKTTVYLQMNSLKPEDTAVYYCNKRIYHLFTYDFWGQGTQVTVSS", "polyreactivity (PSR sort gate)": "high polyreactivity"}
